Target: T1, rat amylin 3(a) receptor (rat calcitonin(a) receptor + rat RAMP3) (rat, UniProt P32214 25-516; Q9JJ73 23-147)
T1 sequence (looked up) 1: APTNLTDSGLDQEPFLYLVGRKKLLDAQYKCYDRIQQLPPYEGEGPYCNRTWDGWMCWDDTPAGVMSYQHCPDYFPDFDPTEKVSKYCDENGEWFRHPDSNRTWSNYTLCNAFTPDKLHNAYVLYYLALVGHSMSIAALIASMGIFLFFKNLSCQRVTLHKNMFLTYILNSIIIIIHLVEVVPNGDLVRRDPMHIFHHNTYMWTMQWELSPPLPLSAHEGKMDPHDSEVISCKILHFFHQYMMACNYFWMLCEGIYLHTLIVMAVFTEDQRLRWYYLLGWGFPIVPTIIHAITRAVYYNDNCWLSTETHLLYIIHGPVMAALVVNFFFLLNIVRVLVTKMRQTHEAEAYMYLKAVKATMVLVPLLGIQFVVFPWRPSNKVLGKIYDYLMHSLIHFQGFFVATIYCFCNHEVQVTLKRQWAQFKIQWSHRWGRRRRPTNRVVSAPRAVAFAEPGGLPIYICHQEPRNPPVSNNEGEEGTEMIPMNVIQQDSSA
T1 sequence (looked up) 2: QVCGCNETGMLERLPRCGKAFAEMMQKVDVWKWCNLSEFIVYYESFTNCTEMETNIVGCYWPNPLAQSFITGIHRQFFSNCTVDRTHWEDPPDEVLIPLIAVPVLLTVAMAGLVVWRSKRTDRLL
Assay: cell-based or functional assay
Starred links: 1 amine or outer side, 2 acyl side, 3 side chain; linkers in the order of their positions; H or OH if unused. Positions of bridges follow the written chain, without caps; N, C: chain ends. *: point of attachment. C20 diacid = O=C(O)CCCCCCCCCCCCCCCCCCC(=O)*; C18 diacid = O=C(O)CCCCCCCCCCCCCCCCC(=O)*; γGlu = O=C(O)[C@H](CCC(=O)[*:2])N[*:1]
Mark yes only when Amylin receptor rat EC50 stays strictly below 0.2 nM. Values equal to the cut-off are no.

Use the examples below as a reference point.
{C20 diacid-γGlu}-KCNTATCATQRLAEFLHHSSNNFGPILPPTNVGSNTP-NH2 (disulfide 2-7; not fully specified; printed as N-alpha-[(S)-4-Carboxy-4-(19-carboxynonadecanoylamino)butyryl]-[Glu14,His17,Pro37]-pramlintide) [N-alpha-[(S)-4-Carboxy-4-(19-carboxynonadecanoylamino)butyryl]-[Glu14,His17,Pro37]-pramlintide]
yes
{C18 diacid-γGlu}-KCNTATCATQRLAEFLHHSSNNFGPILPPTNVGSHTY-NH2 (disulfide 2-7; not fully specified; printed as N-alpha-[(S)-4-Carboxy-4-(17-carboxyheptadecanoylamino)butyryl]-[Glu14,His17,His35]-pramlintide) [N-alpha-[(S)-4-Carboxy-4-(17-carboxyheptadecanoylamino)butyryl]-[Glu14,His17,His35]-pramlintide]
yes
{C20 diacid-γGlu}-HCNTATCATQRLAEFLHHSSNNFGPILPPTNVGSHTY-NH2 (disulfide 2-7; not fully specified; printed as N-alpha-[(S)-4-Carboxy-4-(19-carboxynonadecanoylamino)butyryl]-[His1,Glu14,His17,His35]-pramlintide) [N-alpha-[(S)-4-Carboxy-4-(19-carboxynonadecanoylamino)butyryl]-[His1,Glu14,His17,His35]-pramlintide]
no
{C20 diacid-γGlu}-HCNTATCATQRLAEFLHHSSNNFGPILPPTNVGSNTP-NH2 (disulfide 2-7; not fully specified; printed as N-alpha-[(S)-4-Carboxy-4-(19-carboxynonadecanoylamino)butyryl]-[His1,Glu14,His17,Pro37]-pramlintide) [N-alpha-[(S)-4-Carboxy-4-(19-carboxynonadecanoylamino)butyryl]-[His1,Glu14,His17,Pro37]-pramlintide]
yes
KCNTATCATQRLAEFLRHSSNNFGPILPPTNVGSNTP (N-alpha acylated: C20diacid-gGlu; disulfide Cys2-Cys7; C-terminal amide) [N-alpha-[(S)-4-Carboxy-4-(19-carboxynonadecanoylamino)butyryl]-[Glu14,Arg17,Pro37]-pramlintide]
no
{C18 diacid-γGlu}-KCNTATCATQRLAEFLHHSSNNFGPILPPTNVGSNTY-NH2 (disulfide 2-7; not fully specified; printed as N-alpha-[(S)-4-Carboxy-4-(17-carboxyheptadecanoylamino)butyryl]-[Glu14,His17]-pramlintide) [N-alpha-[(S)-4-Carboxy-4-(17-carboxyheptadecanoylamino)butyryl]-[Glu14,His17]-pramlintide]
yes

Next item in the queue.
IN: # strict comparison: is reported Amylin receptor rat EC50 < 0.2 nM? input = {C20 diacid-γGlu}-EKCNTATCATQRLAEFLHHSSNNFGPILPPTNVGSHTY-NH2 (disulfide 3-8; not fully specified; printed as N-alpha-[(S)-4-Carboxy-4-(19-carboxynonadecanoylamino)butyryl]-Glu-[Glu14,His17,His35]-pramlintide) [N-alpha-[(S)-4-Carboxy-4-(19-carboxynonadecanoylamino)butyryl]-Glu-[Glu14,His17,His35]-pramlintide]
OUT: no

Sourced from patent US20130005646A1
